Listed compounds paired with reported melting point

compound | readout_type | observed
COc1cc(C(=O)N2Cc3ccc(C(=O)N(C)C[C@H](O)[C@@H](O)[C@@H](O)[C@H](O)CO)n3Cc3ccccc32)ccc1-c1ccccc1C(F)(F)F [Example 23] | melting point | 132 to 140 °C (dec.)
COc1cc2c(cc1OC)N(C(=O)c1ccc(-c3ccccc3C(F)(F)F)c(C)c1)Cc1ccc(C(=O)N(CCO)CCO)n1C2 [Example 19] | melting point | 130 to 132 °C
COCCN1CCN(C(=O)c2ccc3n2Cc2ccccc2N(C(=O)c2ccc(-c4ccccc4C(F)(F)F)c(C)c2)C3)CC1 [Example 7] | melting point | 140 to 144 °C
COc1cc2c(cc1OC)N(C(=O)c1ccc(-c3ccccc3C(F)(F)F)c(C)c1)Cc1ccc(C(=O)N(C)CC(O)CO)n1C2 (centres unmarked) [Example 18] | melting point | 184 to 186 °C
Cc1cc(C(=O)N2Cc3ccc(C(=O)N(C)CC(O)CO)n3Cc3ccccc32)ccc1-c1ccccc1C(F)(F)F (centres unmarked) [Example 2] | melting point | 169 to 172 °C

Would you mind telling me what melting point value was observed for COc1cc(C(=O)N2Cc3ccc(C(=O)N(C)CC(O)CN(C)C)n3Cc3ccccc32)ccc1-c1ccccc1C(F)(F)F (centres unmarked) [Example 22] ?
120 to 125 °C (dec.)

Would you mind telling me what melting point value was observed for COc1cc2c(cc1OC)N(C(=O)c1ccc(-c3ccccc3OC)c(C)c1)Cc1ccc(C(=O)N(C)C[C@H](O)[C@@H](O)[C@H](O)[C@H](O)CO)n1C2 [Example 37] ?
110 to 120 °C

Would you mind telling me what melting point value was observed for COc1cc(C(=O)N2Cc3ccc(C(=O)N(C)CC(O)CO)n3Cc3ccccc32)ccc1-c1ccccc1C(F)(F)F (centres unmarked) [Example 21] ?
119 to 123 °C
